Molecular target: recombinant human MGAT2 (Homo sapiens (Human))
Sequence (Q3SYC2 whole entry): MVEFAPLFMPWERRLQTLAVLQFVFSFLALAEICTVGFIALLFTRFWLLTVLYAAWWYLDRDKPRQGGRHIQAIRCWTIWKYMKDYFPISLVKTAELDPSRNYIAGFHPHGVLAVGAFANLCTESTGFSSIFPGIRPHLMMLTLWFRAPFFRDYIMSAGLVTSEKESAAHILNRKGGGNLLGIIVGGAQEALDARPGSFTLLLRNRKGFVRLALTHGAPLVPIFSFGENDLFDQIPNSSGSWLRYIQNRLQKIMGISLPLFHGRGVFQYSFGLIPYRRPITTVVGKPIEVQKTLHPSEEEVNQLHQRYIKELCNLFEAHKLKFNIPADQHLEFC
Experiment: Measurement of human MGAT2 inhibitory activity
Details: recombinant human MGAT2 membrane fraction (Sf-9); 2-Oleoylglycerol and Oleoyl-CoA substrates; 1 hour at room temperature; Diolein detected by RapidFire Q-TOF MS
Binary call on IC50 with cut-off 10 nM: strictly below means Y, and equality or higher means N.

Recorded results for 5 compounds are shown here.
[[record]]
compound = "CS(=O)(=O)CC(=O)NCC1=C(c2ccc(Br)cn2)C[C@@](c2ccc(OCCCC(F)(F)F)cc2)(C(F)(F)F)NC1=O [Compound I-71]"
tgt = "recombinant human MGAT2 (Homo sapiens (Human))"
label_value = "N"

[[record]]
compound = "Cc1ccc(C2=C(CNC(=O)C3CC3)C(=O)N[C@@](c3ccc(OCCCC(F)(F)F)cc3)(C(F)(F)F)C2)nc1 [Compound I-8]"
tgt = "recombinant human MGAT2 (Homo sapiens (Human))"
label_value = "N"

[[record]]
compound = "CS(=O)(=O)CC(=O)NCC1=C(c2ccc(OC(F)F)cn2)C[C@](c2ccc(OCC(F)(F)F)cc2)(C(F)(F)F)NC1=O [Compound I-114]"
tgt = "recombinant human MGAT2 (Homo sapiens (Human))"
label_value = "Y"

[[record]]
compound = "COC(=O)NCC1=C(c2ccc(C)cn2)C[C@](c2ccc(OCCCC(F)(F)F)cc2)(C(F)(F)F)NC1=O [Compound I-7]"
tgt = "recombinant human MGAT2 (Homo sapiens (Human))"
label_value = "N"

[[record]]
compound = "COc1ccc(C2=C(CNS(C)(=O)=O)C(=O)N[C@@](c3ccc(OCCCC(F)(F)F)cc3)(C(F)(F)F)C2)nc1 [Compound I-18]"
tgt = "recombinant human MGAT2 (Homo sapiens (Human))"
label_value = "N"


# input for lookup
Input: Field: below-cutoff. Rule: recorded IC50 strictly less than 10 nM. Subject: COc1ccc(C2=C(CNC(=O)CC(F)(F)F)C(=O)N[C@@](c3ccc(OCCCC(F)(F)F)cc3)(C(F)(F)F)C2)nc1 [Compound I-13]
Output: Y
